FYI, the data here is from the supplement of paper PMC13380429.

system: Vero E6 infected with SARS-CoV-2; assay: inhibition of SARS-CoV-2 cytopathic effect; higher = more antiviral protection, active = above 15; conditions: 10000 nM; 48 h
compounds and their reported inhibition of SARS-CoV-2 cytopathic effect
# value in %; strip the unit string

Below, 4 compounds whose answers are already recorded.
In [3]: df
Out[3]:
                                   compound  assay_result
0  Cc1c(S(=O)(=O)O)oc2c1C(=O)C(=O)c1c-2ccc2c1CCCC2(C)C [sodium-tanshinone-II-A-sulfonate]         -10.1
1  C1CCC(/N=C(\NC23CC4CC(CC(C4)C2)C3)N2CCOCC2)CC1         -3.64
2  CCCN(CCC)[C@H]1CCc2ccc(O)cc2C1 [7-hydroxy-DPAT]          0.48
3  O=P1(N(CCCl)CCCl)NCCCO1 (stereo not given) [cyclophosphamide]          0.46

Turning now to a further record.
# input // query inhibition of SARS-CoV-2 cytopathic effect value for entry NC1CCN(c2cccc(Cl)n2)CC1
# output -3.39
